Biological target: HNRNPA0 (UniProt Q13151)
Sequence: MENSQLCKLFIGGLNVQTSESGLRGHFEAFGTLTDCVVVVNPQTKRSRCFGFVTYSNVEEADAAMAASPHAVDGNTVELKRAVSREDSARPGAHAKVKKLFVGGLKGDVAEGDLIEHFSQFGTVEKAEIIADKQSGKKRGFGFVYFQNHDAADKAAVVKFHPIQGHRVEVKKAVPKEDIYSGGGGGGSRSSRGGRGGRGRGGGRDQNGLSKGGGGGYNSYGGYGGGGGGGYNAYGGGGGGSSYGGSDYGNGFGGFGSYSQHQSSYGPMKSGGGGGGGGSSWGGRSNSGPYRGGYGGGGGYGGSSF
Test: Kd (EC50 corrected by depletion factor)
Metric: pKd
By convention, pKd is the negative base-10 log of a molar concentration.

Data request, read-out pKd, for UAUUUAU
5.49

###

biological target: P4HA1 (UniProt P13674); test: EC50 of free RNA motif oligo competing protein binding to immobilised probe
Sequence (P13674 whole entry): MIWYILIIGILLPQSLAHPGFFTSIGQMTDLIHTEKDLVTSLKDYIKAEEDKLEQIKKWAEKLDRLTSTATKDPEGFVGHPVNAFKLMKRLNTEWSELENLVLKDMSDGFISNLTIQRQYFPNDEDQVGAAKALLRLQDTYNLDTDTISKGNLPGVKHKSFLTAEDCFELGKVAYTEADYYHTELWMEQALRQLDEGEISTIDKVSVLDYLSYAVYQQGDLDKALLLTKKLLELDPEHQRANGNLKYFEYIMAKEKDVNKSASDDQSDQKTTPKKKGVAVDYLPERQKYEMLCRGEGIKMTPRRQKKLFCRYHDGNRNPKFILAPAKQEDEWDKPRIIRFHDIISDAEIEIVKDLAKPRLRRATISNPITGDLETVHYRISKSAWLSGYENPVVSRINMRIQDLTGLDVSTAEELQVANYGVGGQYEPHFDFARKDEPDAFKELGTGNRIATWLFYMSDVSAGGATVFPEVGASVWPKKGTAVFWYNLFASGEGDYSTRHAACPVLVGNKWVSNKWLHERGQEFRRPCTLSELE
Metric: EC50 (nM)
Give the value in nM but do not write nM after it.

Find the measured EC50: item AAUAAA , target or system P4HA1 (UniProt P13674).
65.6

###

Target: CPSF3 (UniProt Q9UKF6)
Sequence: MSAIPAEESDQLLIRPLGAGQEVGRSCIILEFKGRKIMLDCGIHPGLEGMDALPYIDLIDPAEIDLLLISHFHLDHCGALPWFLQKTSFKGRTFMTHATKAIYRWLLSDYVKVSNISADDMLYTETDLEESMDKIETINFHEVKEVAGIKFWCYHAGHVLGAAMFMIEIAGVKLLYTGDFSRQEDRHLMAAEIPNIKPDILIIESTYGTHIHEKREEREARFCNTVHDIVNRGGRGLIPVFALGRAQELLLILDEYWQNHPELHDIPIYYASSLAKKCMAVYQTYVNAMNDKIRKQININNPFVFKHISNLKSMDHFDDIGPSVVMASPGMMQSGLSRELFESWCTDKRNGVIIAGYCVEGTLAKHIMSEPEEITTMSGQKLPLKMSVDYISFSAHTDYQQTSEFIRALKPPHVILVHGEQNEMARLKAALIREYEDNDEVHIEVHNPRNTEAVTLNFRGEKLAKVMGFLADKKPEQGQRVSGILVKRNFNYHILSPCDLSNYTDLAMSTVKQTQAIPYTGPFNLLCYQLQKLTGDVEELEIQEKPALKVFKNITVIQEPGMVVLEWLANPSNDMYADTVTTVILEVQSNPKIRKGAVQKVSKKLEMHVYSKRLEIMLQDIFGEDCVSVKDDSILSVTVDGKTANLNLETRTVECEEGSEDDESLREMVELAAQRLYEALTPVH
Assay: Kd (EC50 corrected by depletion factor)
Metric: pKd
Worth noting: pKd values are minus log10 of concentrations stated in mol/L.

UAUUUAU | 6.57

Please give the measured pKd for this sequence: AAUAAA
8.22

###

Biological target: HNRNPA0 (UniProt Q13151)
Sequence: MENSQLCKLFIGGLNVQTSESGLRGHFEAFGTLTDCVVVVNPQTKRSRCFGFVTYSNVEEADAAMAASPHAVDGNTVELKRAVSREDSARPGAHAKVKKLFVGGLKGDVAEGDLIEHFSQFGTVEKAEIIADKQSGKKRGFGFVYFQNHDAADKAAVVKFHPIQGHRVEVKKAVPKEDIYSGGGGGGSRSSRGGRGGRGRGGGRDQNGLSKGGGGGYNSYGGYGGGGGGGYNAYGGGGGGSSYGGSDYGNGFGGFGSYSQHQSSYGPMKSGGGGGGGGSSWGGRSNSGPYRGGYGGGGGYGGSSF
Assay: EC50 of free RNA motif oligo competing protein binding to immobilised probe
Metric: pEC50
Conceptually, pEC50 converts a concentration in mol/L into minus its log10.

Entry UAUUUAU has what pEC50?
5.31

###

Molecular target: LSM7 (UniProt Q9UK45)
Sequence: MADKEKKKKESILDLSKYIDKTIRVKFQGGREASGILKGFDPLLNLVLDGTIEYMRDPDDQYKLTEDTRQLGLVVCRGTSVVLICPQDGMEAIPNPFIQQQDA
Assay: EC50 of free RNA motif oligo competing protein binding to immobilised probe
# reported pEC50; entries follow
Scale: pEC50 equals -log10([C]), with [C] in mol/L.

UAUUUAU | 6.52

Which pEC50 value is on record for AAUAAA ?
6.18

###

target: SLIRP (UniProt Q9GZT3); experiment: Kd (EC50 corrected by depletion factor)
Overview of reported Kd across a group of sequences:
Reply numerically in nM, unit not repeated.

CUGUCCU | 904

Shifting focus to the sequence that follows.
I have this sequence here, AAUAAA , and I need its recorded Kd.
393

###

Biological target: MYEF2 (UniProt Q9P2K5)
Sequence: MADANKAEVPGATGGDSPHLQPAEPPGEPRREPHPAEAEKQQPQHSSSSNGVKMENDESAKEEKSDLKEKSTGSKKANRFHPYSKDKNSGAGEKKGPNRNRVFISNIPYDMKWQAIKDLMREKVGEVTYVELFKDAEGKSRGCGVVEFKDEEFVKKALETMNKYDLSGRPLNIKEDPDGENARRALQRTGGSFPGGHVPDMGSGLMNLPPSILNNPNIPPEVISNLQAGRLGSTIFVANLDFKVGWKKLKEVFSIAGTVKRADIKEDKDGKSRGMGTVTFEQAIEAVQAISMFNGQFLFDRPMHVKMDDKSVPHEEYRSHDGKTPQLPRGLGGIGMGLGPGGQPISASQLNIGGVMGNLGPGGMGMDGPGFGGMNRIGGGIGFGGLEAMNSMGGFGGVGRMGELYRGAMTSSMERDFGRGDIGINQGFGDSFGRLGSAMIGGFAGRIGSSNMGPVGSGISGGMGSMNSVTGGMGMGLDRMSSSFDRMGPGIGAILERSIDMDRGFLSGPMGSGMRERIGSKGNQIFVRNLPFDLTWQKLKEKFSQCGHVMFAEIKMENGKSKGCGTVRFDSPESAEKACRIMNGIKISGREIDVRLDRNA
Assay: Kd (EC50 corrected by depletion factor)
Metric: Kd (µM)
Supply the numeric figure in µM, leaving out any unit text.

Which Kd is listed for UAUUUAU ?
2.7

###

molecular target: PIP5K1A (UniProt Q99755); test: EC50 of free RNA motif oligo competing protein binding to immobilised probe
Sequence (Q99755 whole entry): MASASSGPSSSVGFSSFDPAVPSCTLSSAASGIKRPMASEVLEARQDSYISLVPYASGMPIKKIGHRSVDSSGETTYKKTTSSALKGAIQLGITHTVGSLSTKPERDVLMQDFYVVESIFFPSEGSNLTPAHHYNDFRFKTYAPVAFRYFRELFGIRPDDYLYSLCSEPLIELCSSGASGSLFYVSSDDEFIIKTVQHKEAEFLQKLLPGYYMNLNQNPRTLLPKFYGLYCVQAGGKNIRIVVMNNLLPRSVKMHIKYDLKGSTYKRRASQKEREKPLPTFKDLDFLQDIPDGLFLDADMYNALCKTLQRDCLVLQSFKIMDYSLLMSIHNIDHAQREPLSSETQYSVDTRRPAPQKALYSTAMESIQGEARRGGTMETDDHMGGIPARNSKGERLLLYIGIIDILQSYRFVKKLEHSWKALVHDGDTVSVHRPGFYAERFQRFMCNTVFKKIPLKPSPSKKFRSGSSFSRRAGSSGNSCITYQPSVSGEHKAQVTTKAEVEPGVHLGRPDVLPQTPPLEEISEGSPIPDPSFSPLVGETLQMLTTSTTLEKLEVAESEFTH
Metric: EC50 (nM)
Enter your answer as a number in nM; do not include the unit.

For AAUAAA , what is its reported EC50?
2250

###

Recorded measurements of pKd, one per entry
molecular target: ELAVL1 (UniProt Q15717); test: Kd (EC50 corrected by depletion factor)
Sequence (Q15717 whole entry): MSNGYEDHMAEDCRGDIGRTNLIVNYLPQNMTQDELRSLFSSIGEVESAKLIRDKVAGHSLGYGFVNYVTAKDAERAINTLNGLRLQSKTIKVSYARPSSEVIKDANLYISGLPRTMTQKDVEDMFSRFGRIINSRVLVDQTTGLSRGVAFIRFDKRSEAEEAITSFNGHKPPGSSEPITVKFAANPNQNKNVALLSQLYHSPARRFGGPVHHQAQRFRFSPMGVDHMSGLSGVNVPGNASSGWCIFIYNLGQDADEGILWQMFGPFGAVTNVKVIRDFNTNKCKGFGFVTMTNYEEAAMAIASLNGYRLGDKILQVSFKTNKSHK
The value called pKd is obtained by taking minus log10 of the concentration in mol/L.

UAUUUAU | 6.04

Okay, next one:
Which pKd is reported with ELAVL1 (UniProt Q15717) for this entry: AAUAAA ?
6.36

###

Molecular target: RBM38 (UniProt Q9H0Z9)
Sequence: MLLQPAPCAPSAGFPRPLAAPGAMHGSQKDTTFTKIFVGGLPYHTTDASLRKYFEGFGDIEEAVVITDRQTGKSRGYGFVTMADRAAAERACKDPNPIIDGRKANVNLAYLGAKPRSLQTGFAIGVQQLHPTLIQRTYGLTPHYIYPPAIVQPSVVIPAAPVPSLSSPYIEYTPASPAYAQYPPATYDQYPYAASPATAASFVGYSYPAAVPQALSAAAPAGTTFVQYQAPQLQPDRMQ
Experiment: Kd (EC50 corrected by depletion factor)
Metric: pKd
Lab note — pKd values are minus log10 of concentrations in M.

I have this sequence here, UAUUUAU , and I need its recorded pKd.
5.90

###

Target: CDKN2AIP (UniProt Q9NXV6)
Sequence: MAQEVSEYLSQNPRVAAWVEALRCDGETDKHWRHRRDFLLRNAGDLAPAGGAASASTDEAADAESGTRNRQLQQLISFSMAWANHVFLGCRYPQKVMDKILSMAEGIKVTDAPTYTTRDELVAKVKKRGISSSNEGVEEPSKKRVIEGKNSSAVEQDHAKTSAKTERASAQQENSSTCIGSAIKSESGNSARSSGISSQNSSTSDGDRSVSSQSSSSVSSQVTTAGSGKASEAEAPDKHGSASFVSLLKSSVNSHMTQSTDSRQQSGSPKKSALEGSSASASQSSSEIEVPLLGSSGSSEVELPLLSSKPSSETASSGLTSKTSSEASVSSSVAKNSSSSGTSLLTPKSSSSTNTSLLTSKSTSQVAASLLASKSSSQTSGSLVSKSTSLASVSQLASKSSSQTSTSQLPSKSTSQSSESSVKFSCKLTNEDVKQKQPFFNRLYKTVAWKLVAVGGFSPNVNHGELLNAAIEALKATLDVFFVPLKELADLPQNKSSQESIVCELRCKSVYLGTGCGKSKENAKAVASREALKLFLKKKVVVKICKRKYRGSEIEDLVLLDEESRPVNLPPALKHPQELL
Assay: Kd (EC50 corrected by depletion factor)
Metric: Kd (nM)
Form entry: value (nM) — number only.

Kd lookup needed for UAUUUAU , thanks.
368
